# subject of test: UniProtKB P05067
# test summary: Th-T (thioflavin-T) assay of Aβ42 aggregation
# Assay type: biochemical
# run conditions: compound at 20; reading M60 of time course
Recorded Th-T fluorescence, mean of three wells for the following molecules
Could you respond with only the numeric value?

• C=C1CCC2C(C)(CCC=C(C)C)C(O)CCC2(C)C1Cc1c(OC)oc(CO)c(C(=O)OC)c1=O (centres unmarked) = 0.9918
• C=C1CCC2C(C)(CCC=C(C)C)C(O)CCC2(C)C1Cc1c(OC)oc(C)c(C(=O)OC)c1=O (centres unmarked) = 2.083
• C=C1CCC2C(C)(CCC=C(C)C)C(O)CCC2(C)C1Cc1c(OC)oc(CO)c(C)c1=O (centres unmarked) = 2.117
• C=C1CC[C@@H]2[C@](C)(CC[C@H]3O[C@H](C=C(C)C)C[C@@]23C)[C@@H]1Cc1c(OC)oc(CO)c(C(=O)OC)c1=O = 0.2314

Kindly consider the entry below.
Record request: Th-T fluorescence, mean of three wells value, item C=C1CC[C@@H]2[C@](C)(CC[C@H]3O[C@H](C=C(C)C)C[C@@]23C)[C@@H]1Cc1c(OC)oc(CO)c(C)c1=O
3.432

###

# subject of test: Aβ42 (Homo sapiens, UniProt P05067)
# Sequence (P05067 672-713): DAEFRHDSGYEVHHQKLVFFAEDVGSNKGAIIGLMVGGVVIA
# test summary: Th-T (thioflavin-T) assay of Aβ42 aggregation
# Type: biochemical
# run conditions: reading M36; Supplementary Fig. 47 source data
outcome measure: Th-T fluorescence, mean of three wells

- C=C1CC[C@H]2[C@]3(C)C[C@H](C=C(C)C)O[C@H]3CC[C@]2(C)[C@@H]1Cc1c(O)c(C)c(C)oc1=O: 3.001
- C=C1CCC2C3(C)CC(C=C(C)C)OC3CCC2(C)C1Cc1c(OC)oc(C)c(C)c1=O (stereo not shown): 3.863
- C=C1CCC2C(C)(CC(=O)C=C(C)C)C(O)CCC2(C)C1Cc1c(OC)oc(C)c(C)c1=O (stereo not shown): 3.706

Kindly consider the entry below.
Record request: Th-T fluorescence, mean of three wells value, item C=C1CCC2C(C)(CC(=O)C=C(C)C)C(O)CCC2(C)C1Cc1c(O)c(C)c(C)oc1=O (stereo not shown)
3.503

###

# subject of test: Aβ42 (Homo sapiens)
# test summary: Th-T (thioflavin-T) assay of Aβ42 aggregation
# Type: biochemical
# run conditions: reading M33; Supplementary Fig. 47 source data
outcome measure: Th-T fluorescence, mean of three wells
Could you respond with only the numeric value?

Example entries and their recorded answers appear below.
• C=C1CC[C@H]2[C@]3(C)C[C@H](C=C(C)C)O[C@H]3CC[C@]2(C)[C@@H]1Cc1c(O)c(C)c(C)oc1=O [Compound 6, subglutinol B] = 2.954
• C=C1CC[C@H]2[C@]3(C)C[C@H](C=C(C)C)O[C@H]3CC[C@]2(C)[C@@H]1Cc1c(OC)oc(CO)c(C)c1=O [Compound 18] = 3.748
• C=C1CC[C@@H]2[C@](C)(CC[C@H]3O[C@H](C=C(C)C)C[C@@]23C)[C@@H]1Cc1c(O)c(C)c(C)oc1=O [Compound 10, higginsianin A] = 2.966
• CC(C)=CCC/C(C)=C/CC/C(C)=C/CC/C(C)=C/Cc1c(O)c(C)c(C)oc1=O [Compound 2] = 2.738
• C=C1CCC2C(C)(CC(=O)C=C(C)C)C(O)CCC2(C)C1Cc1c(OC)oc(C)c(C)c1=O (stereo not drawn) [Compound 25] = 3.704

Any idea what Th-T fluorescence, mean of three wells came out for C=C1CCC2C3(C)CC(C=C(C)C)OC3CCC2(C)C1Cc1c(OC)oc(C)c(C)c1=O (stereo not drawn) [Compound 23] on Aβ42 (Homo sapiens)?
3.798

Any idea what Th-T fluorescence, mean of three wells came out for C=C1CC[C@H]2[C@]3(C)C[C@@H](C=C(C)C)O[C@H]3CC[C@]2(C)[C@@H]1Cc1c(O)c(C)c(C)oc1=O [Compound 5, subglutinol A] on Aβ42 (Homo sapiens)?
2.5475

Any idea what Th-T fluorescence, mean of three wells came out for C=C1CCC2C(C)(CC(=O)C=C(C)C)C(O)CCC2(C)C1Cc1c(OC)oc(CO)c(C)c1=O (stereo not drawn) [Compound 19] on Aβ42 (Homo sapiens)?
3.3097

Any idea what Th-T fluorescence, mean of three wells came out for C=C1CC[C@H]2[C@]3(C)C[C@H](C=C(C)C)O[C@H]3CC[C@]2(C)[C@@H]1Cc1c(OC)oc(C)c(C)c1=O [Compound 24] on Aβ42 (Homo sapiens)?
4.071

Any idea what Th-T fluorescence, mean of three wells came out for C=C1CC[C@H]2[C@]3(C)C[C@@H](C=C(C)C)O[C@H]3CC[C@]2(C)[C@@H]1Cc1c(OC)oc(CO)c(C)c1=O [Compound 17] on Aβ42 (Homo sapiens)?
3.031

Any idea what Th-T fluorescence, mean of three wells came out for C=C1CCC2C(C)(CCC=C(C)C)C(=O)CCC2(C)C1Cc1c(O)c(C)c(C)oc1=O (stereo not drawn) [Compound 8] on Aβ42 (Homo sapiens)?
2.135

Any idea what Th-T fluorescence, mean of three wells came out for C=C1CCC2C(C)(CC(=O)C=C(C)C)C(O)CCC2(C)C1Cc1c(O)c(C)c(C)oc1=O (stereo not drawn) [Compound 7] on Aβ42 (Homo sapiens)?
3.448

###

# subject of test: Aβ42 (Homo sapiens, UniProt P05067)
# test summary: Th-T (thioflavin-T) assay of Aβ42 aggregation
# Assay type: biochemical
# run conditions: column suffix _10; reading M10
Recorded Th-T assay signal, mean of three wells (Fig. 7a) for the following compounds
Could you respond with only the numeric value?

Example entries and their recorded answers appear below.
- C=C1CCC2C(C)(CCC=C(C)C)C(O)CCC2(C)C1Cc1c(OC)oc(C)c(C(=O)OC)c1=O (centres unmarked): 0.4248
- C=C1CCC2C(C)(CCC=C(C)C)C(O)CCC2(C)C1Cc1c(OC)oc(CO)c(C)c1=O (centres unmarked): 0.5209
- C=C1CC[C@@H]2[C@](C)(CC[C@H]3O[C@H](C=C(C)C)C[C@@]23C)[C@@H]1Cc1c(OC)oc(CO)c(C(=O)OC)c1=O: 0.2184

Record request: Th-T assay signal, mean of three wells (Fig. 7a) value, item C=C1CCC2C(C)(CCC=C(C)C)C(O)CCC2(C)C1Cc1c(OC)oc(CO)c(C(=O)OC)c1=O (centres unmarked)
0.233

Record request: Th-T assay signal, mean of three wells (Fig. 7a) value, item C=C1CC[C@@H]2[C@](C)(CC[C@H]3O[C@H](C=C(C)C)C[C@@]23C)[C@@H]1Cc1c(OC)oc(CO)c(C)c1=O
0.6392

###

# subject of test: UniProt:P05067
# test summary: Th-T (thioflavin-T) assay of Aβ42 aggregation
# Format: biochemical
# run conditions: compound at 10; reading M56 of time course
Recorded Th-T fluorescence, mean of three wells for the following compounds
Could you respond with only the numeric value?

- C=C1CCC2C(C)(CCC=C(C)C)C(O)CCC2(C)C1Cc1c(OC)oc(CO)c(C)c1=O (centres unmarked) [Compound 12]: 3.46
- C=C1CCC2C(C)(CCC=C(C)C)C(O)CCC2(C)C1Cc1c(OC)oc(C)c(C(=O)OC)c1=O (centres unmarked) [Compound 14]: 2.561
- C=C1CCC2C(C)(CCC=C(C)C)C(O)CCC2(C)C1Cc1c(OC)oc(CO)c(C(=O)OC)c1=O (centres unmarked) [Compound 13]: 1.545
- C=C1CC[C@@H]2[C@](C)(CC[C@H]3O[C@H](C=C(C)C)C[C@@]23C)[C@@H]1Cc1c(OC)oc(CO)c(C)c1=O [Compound 20]: 3.4836

Record request: Th-T fluorescence, mean of three wells value, item C=C1CC[C@@H]2[C@](C)(CC[C@H]3O[C@H](C=C(C)C)C[C@@]23C)[C@@H]1Cc1c(OC)oc(CO)c(C(=O)OC)c1=O [Compound 21]
0.3032

###

Recorded pEC50 for the following compounds
# System: human immunodeficiency virus-1 (HIV-1)
# test summary: anti-HIV MAGI assay
# Type: cell-based
# run conditions: Human immunodeficiency virus 1, MAGI, anti-HIV; average of numeric determinations; read-out: Avg. EC50
Please report pEC50 as the negative decimal logarithm of the molar concentration, giving only the number.

• C=C1CC[C@@H]2[C@](C)(CC[C@H]3O[C@H](C=C(C)C)C[C@@]23C)[C@@H]1Cc1c(O)c(C)c(C)oc1=O = 7.27
• C=C1CCC2C(C)(CC(=O)C=C(C)C)C(O)CCC2(C)C1Cc1c(O)c(C)c(C)oc1=O (stereo not shown) = 6.79
• C=C1CCC2C(C)(CC(=O)C=C(C)C)C(O)CCC2(C)C1Cc1c(OC)oc(CO)c(C)c1=O (stereo not shown) = 5.80

Kindly consider the entry below.
Record request: pEC50 value, item Cc1oc(=O)cc(O)c1C
7.12
